Reference source: PubChem BioAssay (NCI)

# Test system: UO-31 renal
# assay_method_text: NCI-60 one-dose screen, 48 h (100 = growth as untreated, 0 = no growth, -100 = all killed)
# condition_description: 10 µM unless noted
# Experimental: Growth inhibition of the UO-31 human tumor cell line is measured as a screen for anti-cancer activity. Cells are grown in 96 well plates and exposed to the test compound for 48 hours. Compounds are tested at a single concentration, which is 10^-5 M for most compounds. The reported endpoint is percent growth (GI% or GIPRCNT), where numbers from 0 - 100% represent growth inhibition, and numbers from -100% - 0 represent cell death. For example, a value of 40 represents 60% growth inhibition. […]
About 83,000 compounds went through this panel and 20% of them were active in at least one assay; those are over-represented in the sample as a whole. Activity calls are given as the source filed them. Rule for the calls: active = growth percent below 10; inactive = the rest.
readout_kind: growth

compound=CCc1cccc(Cl)c1 reported_value="85.3% (inactive)"
compound=O=C(Nc1cccnc1)c1ccc2ccc3ccc(C(=O)Nc4cccnc4)nc3c2n1 reported_value="36.3% (inactive)"
compound="CCN(CC)c1ccc2cc(C(Nc3ccc(C)cc3)c3nnnn3C(C)(C)C)c(=O)oc2c1 (configuration not stated)" reported_value="72.5% (inactive)"
compound=Cn1cc(-c2nnc(-c3cn(C)c4ncccc34)o2)c2ccccc21 reported_value="18% (inactive)"
compound="CCCCC(CC)COC(=O)C[N+](C)(C)CCOC(c1ccccc1)c1ccccc1 (configuration not stated)" reported_value="95.6% (inactive)"
compound=Cn1cc(-c2nnc(-c3cn(C)c4ncc(Br)cc34)o2)c2ccccc21 reported_value="61.4% (inactive)"
compound=CCc1ccc(C2=C/C(=C/c3ccccc3)C(=O)N2CCc2ccc(S(N)(=O)=O)cc2)cc1 reported_value="68.4% (inactive)"
compound=Cc1cc(C)c(O)c(CNCCCCCCNCc2cc(C)cc(C)c2O)c1 reported_value="-60.3% (active)"
compound=COC(=O)c1cc2c(=O)[nH]cc3c2c(n1)CCC3 reported_value="75.4% (inactive)"
compound=Cn1cc(-c2noc(-c3cn(C)c4ncc(F)cc34)n2)c2ccccc21 reported_value="61.7% (inactive)"
compound=Cc1cccc(C[C@H](NC(=O)Nc2ccc(Cl)cc2F)C(=O)N[C@@H]2C(=O)N3C[C@H](O)C[C@H]3C(=O)N3CCCC[C@H]3C(=O)N[C@@H](C)C(=O)N3C[C@H](C)C[C@H]3C(=O)O[C@H]2C)c1 reported_value="10.3% (inactive)"
compound=Ic1ccc2[nH]cc(SSc3c[nH]c4ccc(I)cc34)c2c1 reported_value="36.6% (inactive)"
compound=c1cc2ccc1CNCCN1CCNCc3ccc(cc3)Oc3ccc(cc3)CNCCN(CCNCc3ccc(cc3)O2)CCNCc2ccc(cc2)Oc2ccc(cc2)CNCC1 reported_value="85.3% (inactive)"
compound="CC(C)[N+](C)(C)CC(O)COc1cccc2ccccc12 (configuration not stated)" reported_value="76.4% (inactive)"
compound=CCOc1ccc(/C=C(\C#N)c2cc3ccccc3[nH]2)cc1 reported_value="69.5% (inactive)"
compound=COc1ccc2nc3ccccc3c(NCCNCCO)c2c1 reported_value="-7.42% (active)"
compound=Cc1ccc2c(n1)C(=O)C(Cl)=C(Nc1ccc(N3CCN(C)CC3)cc1)C2=O reported_value="-97.4% (active)"
compound=CC1(C)CC[C@]23CC[C@]4(C)[C@H](CC[C@@H]5[C@@]6(C)C/C(=C/c7ccncc7)C(=O)C(C)(C)[C@@H]6CC[C@]54C)[C@H]2[C@H]1OC3=O reported_value="91.8% [100 µM] (inactive)"
compound=CCCCCN(CCCCC)CCCCCCCCN1CCCc2ccccc21 reported_value="62% (inactive)"
compound=Cn1cc(-c2noc(-c3cn(C)c4ncc(F)cc34)n2)c2cc(Cl)ccc21 reported_value="53.3% (inactive)"
compound=Oc1c(CNCCNCc2cc(Cl)cc(Cc3ccccc3)c2O)cc(Cl)cc1Cc1ccccc1 reported_value="-20% (active)"
compound=COc1cc(Cl)cc(-c2nn(C(=O)NS(=O)(=O)c3ccccc3)cc2-c2ccncc2)c1 reported_value="70.6% (inactive)"
compound=O=C(N=c1n(-c2ccccc2)nc2n1CCN2C1=NCCN1)c1ccc(Cl)cc1 reported_value="57.9% (inactive)"
compound="CCN(CC)CCCC(C)Nc1ccnc2cc(Cl)c(SCc3ccccc3)cc12 (configuration not stated)" reported_value="-84.1% (active)"
compound=COc1cc(NN=C(c2ccc(O)cc2)c2ccc(O)cc2)c([N+](=O)[O-])cc1[N+](=O)[O-] reported_value="-66.4% (active)"
compound=O=S(=O)(/N=c1/n(-c2ccccc2)nc2n1CCN2C1=NCCN1)c1ccc(-c2ccccc2)cc1 reported_value="84.4% (inactive)"
compound=Nc1nc(Nc2ccccc2)c2ncn(Cc3cc4c(cc3Br)OCO4)c2n1 reported_value="40.3% (inactive)"
compound=COc1cc(C)cc2oc3oc(=O)c(-c4nc5ccccc5s4)cc3c(=O)c12 reported_value="74.6% (inactive)"
compound="C/C=C/C1OC23CCCCC2C(C#N)(C(=N)O3)C1(C#N)C#N (configuration not stated)" reported_value="76.2% (inactive)"
compound=CC1=CC[C@@H]2C(C)(C)[C@@H](O)CC[C@@]2(C)[C@@H]1COc1ccc2ccc(=O)oc2c1 reported_value="2.21% (active)"
compound=COc1cc(C)cc2oc3oc(=O)c(C(=O)c4cc5cc(Br)ccc5o4)cc3c(=O)c12 reported_value="72.7% (inactive)"
compound=CCOC(=O)c1nc2c3ccccc3ccn2c1C(=O)OC reported_value="91.7% (inactive)"
compound=Cc1cccc(C[C@H](NC(=O)Nc2ccc(C)cc2F)C(=O)N[C@@H]2C(=O)N3C[C@H](O)C[C@H]3C(=O)N3CCN(C)C[C@H]3C(=O)N[C@@H](C)C(=O)N3C[C@H](C)C[C@H]3C(=O)O[C@H]2C)c1 reported_value="93% (inactive)"
compound="COc1cc2c(c(OC)c1)C1c3cc(OC)ccc3NC(=O)N1CC2 (configuration not stated)" reported_value="78.5% (inactive)"
compound=O=C(CSc1nc2ccc([N+](=O)[O-])cc2[nH]1)Nc1cccc(Cl)c1 reported_value="9.96% (active)"
compound=COc1cc2c(cc1OCCCN1CCN(CCCOc3cc4c(cc3OC)C(=O)N3C[C@H](F)C[C@H]3C=N4)CC1)N=C[C@@H]1C[C@@H](F)CN1C2=O reported_value="11.8% (inactive)"
compound=CNC(=O)c1cc(Oc2cccc3nc(NC(=O)Nc4cc(C(F)(F)F)cc(C(F)(F)F)c4)ccc23)ccn1 reported_value="11.7% (inactive)"

###

# System: UACC-62 melanoma
# assay_method_text: NCI-60 one-dose screen, 48 h
# condition_description: 10 µM unless noted
This is part of a sample that, as a whole, favours compounds with a hit. Of some 83,000 tested, about 20% had one in any assay. Calls of active or inactive are those of the source. How the source made its calls: active means growth percent below 10; inactive means the rest.
Outcomes: active, inactive

compound=NNC(=O)c1ccc(C(=O)NN)cc1 measurement_target="UACC-62 melanoma" class_assignment=inactive
compound=N/C(=N\c1nc2ccccc2[nH]1)NC(=O)Cc1cccc2ccccc12 measurement_target="UACC-62 melanoma" class_assignment=inactive
compound=COc1cc(NN=C(c2ccc(O)cc2)c2ccc(O)cc2)c([N+](=O)[O-])cc1[N+](=O)[O-] measurement_target="UACC-62 melanoma" class_assignment=inactive
compound=Cc1cccc(C[C@H](NC(=O)Nc2ccc(Cl)cc2F)C(=O)N[C@@H]2C(=O)N3C[C@H](O)C[C@H]3C(=O)N3CCCC[C@H]3C(=O)N[C@@H](C)C(=O)N3C[C@H](C)C[C@H]3C(=O)O[C@H]2C)c1 measurement_target="UACC-62 melanoma" class_assignment=active
compound=C[C@@H](NC(=O)[C@@H](CC(=O)N1CCC(N2CCCCC2)CC1)N1C(=O)[C@@H](N2C(=O)OC[C@@H]2c2ccccc2)[C@H]1/C=C/c1cccc(Cl)c1)c1ccccc1 measurement_target="UACC-62 melanoma" class_assignment=inactive
compound=CCn1cc(-c2cc(-c3ccc(Cl)cc3)nc(N)n2)c(-c2ccc(Br)cc2)n1 measurement_target="UACC-62 melanoma" class_assignment=inactive
compound=[2H]C1([2H])CCN(C(=O)C2CC2)c2cc(NS(=O)(=O)c3ccc(-c4cccc(C(N)=O)c4)cc3)ccc21 measurement_target="UACC-62 melanoma" class_assignment=inactive
compound=Cc1ccc(C2=C/C(=C/c3ccc(Br)cc3)C(=O)N2CCc2ccc(S(N)(=O)=O)cc2)cc1 measurement_target="UACC-62 melanoma" class_assignment=inactive
compound=C=C(C)[C@@H]1CC[C@]2(C(N)=O)CC[C@]3(C)[C@H](CC[C@@H]4[C@@]5(C)CC[C@H](O)C(C)(C)[C@@H]5CC[C@]43C)[C@@H]12 measurement_target="UACC-62 melanoma" class_assignment=active
compound=O=C(CSc1nc2ccc([N+](=O)[O-])cc2[nH]1)Nc1ccc(F)c(Cl)c1 measurement_target="UACC-62 melanoma" class_assignment=active
compound="CC1Cc2c(Cl)ncnc2N(C)c2ccc(O)cc21 (configuration not stated)" measurement_target="UACC-62 melanoma" class_assignment=inactive
compound=CNc1cc(C(=O)O)nc(NC)n1 measurement_target="UACC-62 melanoma" class_assignment=inactive
compound="CCCCCCCCCN(CCCCCCCCC)C(C)C(=O)c1ccc2cc(Br)c3ccccc3c2c1 (configuration not stated)" measurement_target="UACC-62 melanoma" class_assignment=inactive
compound=C=C(C)[C@@H]1CC[C@]2(C)[C@H](CC[C@@H]3[C@@H]([C@@](C)(O)CCC=C(C)C)CC[C@]32C)[C@@]1(C)CCC(=O)O measurement_target="UACC-62 melanoma" class_assignment=active
compound="CCCC(NC(=O)OCc1ccccc1)C(=O)O (configuration not stated)" measurement_target="UACC-62 melanoma" class_assignment=inactive
compound=O=c1cc(-c2ccccc2)oc2cc(OCc3cn(Cc4ccc(F)cc4)nn3)cc(O)c12 measurement_target="UACC-62 melanoma" class_assignment=inactive
compound=O=c1[nH]c(CN2CCN(c3cccc(Cl)c3)CC2)nc2cc(Cl)ccc12 measurement_target="UACC-62 melanoma" class_assignment=inactive
